- Test system: HT-29
- Test protocol: NCI tumour cell line growth inhibition, 48 h
Activity calls are given as the source filed them. Rule as the data show it: active = GI50 up to about 1.1 µM and inactive = higher.
Measurement type: GI50

Solved cases (2 shown):
O=C(O)Cc1cccnc1	> 100 µM (inactive)
CC(C)N(C(=O)C12C3C4C1(I)C1C2C3(I)C41C(=O)N(C(C)C)C(C)C)C(C)C (stereo not drawn)	> 100 µM (inactive)

Now consider a different compound.
Record request: GI50 value, item `CCCCCCCCCCCCCC(=O)CBr`
15.9 µM (inactive)

---

Below: a set of entries, each annotated with reported GI50.
- Test system: A549
- Test protocol: NCI tumour cell line growth inhibition, 48 h
Activity calls are given as the source filed them. Rule as the data show it: active = GI50 up to about 1.1 µM and inactive = higher.

CC1=NN(C(=O)Nc2ccccc2)C(=O)C2CCC(=O)N12 (stereo not given)	> 100 µM (inactive)
COC(=O)C1CC(=O)CCC1c1ccccc1 (stereo not given)	> 100 µM (inactive)
Cc1nc2ccc(C(F)(F)F)cc2nc1NCc1ccc(Cl)c(Cl)c1	16.4 µM (inactive)
Cc1cc(N(CCCCl)CCCCl)ccc1/C=N/c1cccc(Cl)c1	12.3 µM (inactive)

Now consider a different compound.
Record request: GI50 value, item C/C(=C\COc1ccc2ccc(=O)oc2c1)C1=CC(=O)C(C)(C)O1 [GEIPARVARIN]
7.67 µM (inactive)
